Assay: qHTS Assay for inhibitors of the human cytomegalovirus (HCMV); further: on the % scale 0 is the no-effect control and ±100 the full control effect
Settings: HFF cells, HCMV-luciferase reporter, 72 h; at 57.5 µM
Procedure: NCGC Assay Overview: Infection with human cytomegalovirus (HCMV) continues to pose significant threats for pregnant women and immunocompromised hosts. […] This is a cell-based assay for HCMV inhibition in HFFs cells. […] At 72 h post infection cell lysates were collected and luciferase activity was determined using the Glomax-Multi + Detection System (Promega, Madison, WI). […]
Out of some 410,000 compounds screened, about 18,000 (4.4%) were called active. Inconclusive results (about 7%) are left out. No stated cut-off is given here; in the data, active means activity change below about -60%; inconclusive means no clear call, values can overlap the other calls; inactive means above about -39%. The entries come from a sample that favours actives as a whole.
Outcome codes: y (active), n (inactive)

[[record]]
compound = "CCOC(=O)c1sc(/N=C/C2=C(O)CC(C)(C)CC2=O)c(C(=O)OCC)c1C"
label_class = "n"

[[record]]
compound = "CC(NC(=O)COc1cccnc1[N+](=O)[O-])c1ccc(Cl)cc1Cl (stereo unspecified)"
label_class = "n"

[[record]]
compound = "O=C1OCCC1=COCCCCOC=C1CCOC1=O"
label_class = "n"

[[record]]
compound = "Cc1ccc(/C=C/C(=O)Nc2ccc([N+](=O)[O-])c(NC(=O)/C=C/c3ccc(C)o3)c2)o1"
label_class = "y"

[[record]]
compound = "COc1ccc(-n2ccn(CC(=O)Nc3ccc(C)c(C)c3)c(=O)c2=O)cc1OC"
label_class = "n"

[[record]]
compound = "c1ccc2cc(CCCc3cc4ccccc4cn3)ncc2c1"
label_class = "n"

[[record]]
compound = "CCOC(=O)c1nnn(CC(=O)NC(=O)Nc2ccccc2F)c1C(=O)OCC"
label_class = "n"

[[record]]
compound = "COc1cc(/C=C/CNC[C@H]2O[C@@H](n3cnc(C(N)=O)n3)[C@H](O)[C@@H]2O)ccc1O"
label_class = "n"

[[record]]
compound = "CNC[C@H]1OCc2cnnn2CCCC(=O)N([C@H](C)CO)C[C@@H]1C"
label_class = "n"

[[record]]
compound = "O=c1cc2nc(-c3ccccc3)nc(SCCOc3ccc(Cl)cc3)n2[nH]1"
label_class = "n"

[[record]]
compound = "COc1ccc(OC)c(NC(=O)/C=C/c2ccc(C)o2)c1"
label_class = "n"

[[record]]
compound = "Cc1ccc(OCC(=O)Nc2ccccc2Sc2ccc(Cl)cc2)c([N+](=O)[O-])n1"
label_class = "n"

[[record]]
compound = "Cc1c(NC(=O)C(C)(C)C)cccc1-c1nc2ccccc2s1"
label_class = "n"

[[record]]
compound = "CCC(=O)N1CCc2cc(S(=O)(=O)NC(Cc3ccccc3)C(=O)NCc3ccc(C)cc3)ccc21 (stereo unspecified)"
label_class = "n"

[[record]]
compound = "CN1CCC2(CC1)NC(=O)NC2=O"
label_class = "n"

[[record]]
compound = "Oc1ccccc1-c1nc2ccc(Cl)cn2c1Nc1ccc2c(c1)OCCO2"
label_class = "n"

[[record]]
compound = "Cn1c(=O)c2c(SCC(=O)NCC3CCCO3)nc(-c3ccccc3F)nc2n(C)c1=O (stereo unspecified)"
label_class = "n"

[[record]]
compound = "Cc1ccc(S(=O)(=O)CC(=O)Nc2c(C)n(C)n(-c3ccccc3)c2=O)cc1"
label_class = "n"

[[record]]
compound = "CCC(=O)N1CCc2cc(S(=O)(=O)NC(CC(C)C)C(=O)NCCc3cccc(C)c3)ccc21 (stereo unspecified)"
label_class = "n"

[[record]]
compound = "Cc1c(NC(=O)Cc2ccccc2)cccc1-c1nc2cccnc2s1"
label_class = "y"

[[record]]
compound = "CCOc1ccccc1NC(=O)CN1CCN(S(=O)(=O)c2ccc(Br)cc2)CC1"
label_class = "n"


====

Recorded measurements of activity change, negative = inhibition, one per entry
Assay: qHTS Assay for inhibitors of the human cytomegalovirus (HCMV); further: on the % scale 0 is the no-effect control and ±100 the full control effect
Conditions: HFF cells, HCMV-luciferase reporter, 72 h; at 57.5 µM; hits give low values
Out of some 410,000 compounds screened, about 18,000 (4.4%) were called active. Roughly 7% stayed inconclusive and do not appear here. The list comes from a sample in which actives are over-represented; it also holds close analogues and randomly drawn compounds.
value kind: activity change, negative = inhibition (%)

[[record]]
compound = "Cc1ccc(OCCOCCOc2ccc(Br)cc2/C=N\\NC(=O)c2ccncc2)cc1"
unit_tag = "%"
value_measured = -1.54

[[record]]
compound = "CC(Sc1cccc[n+]1[O-])C(=O)Nc1cccc(S(=O)(=O)N2CCOCC2)c1 (stereo not given)"
unit_tag = "%"
value_measured = 28.7

[[record]]
compound = "CC1CCCCN1Cc1c(O)ccc2c(=O)c(-c3cccc(Cl)c3)c(C(F)(F)F)oc12 (stereo not given)"
unit_tag = "%"
value_measured = 11.3

[[record]]
compound = "CCOC(=O)N1CCC(NC(=O)C(NS(=O)(=O)c2ccc3c(c2)CCN3C(=O)CC)C(C)C)CC1 (stereo not given)"
unit_tag = "%"
value_measured = 1.92

[[record]]
compound = "CC1CCCN(c2nc3c(S(=O)(=O)c4ccc(C(C)C)cc4)nnn3c3ccsc23)C1 (stereo not given)"
unit_tag = "%"
value_measured = 20

[[record]]
compound = "COCCN(CCOC)S(=O)(=O)c1ccc(C(=O)Nc2nc3c(s2)CCc2ccccc2-3)cc1"
unit_tag = "%"
value_measured = -63.9

[[record]]
compound = "CCCCCC1CCC(c2nnc(SCC(C)=O)o2)CC1 (stereo not given)"
unit_tag = "%"
value_measured = -99.8

[[record]]
compound = "O=C(NC1CCCCCC1)C1CCN(C(=O)c2ccc(Cl)cc2)CC1"
unit_tag = "%"
value_measured = -37.2

[[record]]
compound = "O=c1cc(O)c(-c2cccc(C(F)(F)F)c2)c(Cl)[nH]1"
unit_tag = "%"
value_measured = -14.8

[[record]]
compound = "COc1ccc(C)cc1NC(=O)C(=O)NCCc1sc(-c2cccc(C)c2)nc1C"
unit_tag = "%"
value_measured = -4.02

[[record]]
compound = "CCCOc1ccc(N2C(=O)CC(N(CCc3ccc(S(N)(=O)=O)cc3)C(C)=O)C2=O)cc1 (stereo not given)"
unit_tag = "%"
value_measured = 29.6

[[record]]
compound = "Cc1ccc(CNC(=O)CCc2c(C)nc3nc(CNC(=O)OC(C)(C)C)nn3c2C)cc1"
unit_tag = "%"
value_measured = -10.3

[[record]]
compound = "Cc1ccc(NC(=O)c2ccc(CSc3ncnc4nc[nH]c34)cc2)c(C)c1"
unit_tag = "%"
value_measured = -37

[[record]]
compound = "COc1cc(C(=O)NCc2ccncc2)cc(Br)c1OCc1ccccc1"
unit_tag = "%"
value_measured = -62.2

[[record]]
compound = "COc1ccc(-c2nc3sc(CCNS(=O)(=O)c4ccc(F)c(C)c4)c(C)n3n2)cc1"
unit_tag = "%"
value_measured = -32.9

[[record]]
compound = "C=CCN(c1ccc(C(=O)Nc2cc(C)cc(C)c2)cc1)S(C)(=O)=O"
unit_tag = "%"
value_measured = -28.7

[[record]]
compound = "S=c1c2[nH]cnc2ncn1CCSc1ncnc2nc[nH]c12"
unit_tag = "%"
value_measured = -16

[[record]]
compound = "COCCN(CC(=O)Nc1ccccc1C)S(=O)(=O)c1ccc(S(=O)(=O)N2CCCC2)cc1"
unit_tag = "%"
value_measured = 26.9

[[record]]
compound = "CCCN(CCC)S(=O)(=O)c1ccc(C(=O)Nc2sc3c(c2C(=O)OC)CCN(CC)C3)cc1"
unit_tag = "%"
value_measured = -35.8

[[record]]
compound = "Cc1cc(C(=O)N2CCC(C(=O)O)CC2)c(C(F)(F)F)o1"
unit_tag = "%"
value_measured = 0.635


====

Recorded measurements of activity change, negative = inhibition, one per entry
Experiment: qHTS Assay for inhibitors of the human cytomegalovirus (HCMV); further: on the % scale 0 is the no-effect control and ±100 the full control effect
Settings: HFF cells, HCMV-luciferase reporter, 72 h; at 57.5 µM; hits give low values
Procedure: NCGC Assay Overview: Infection with human cytomegalovirus (HCMV) continues to pose significant threats for pregnant women and immunocompromised hosts. […] This is a cell-based assay for HCMV inhibition in HFFs cells. […] At 72 h post infection cell lysates were collected and luciferase activity was determined using the Glomax-Multi + Detection System (Promega, Madison, WI). […]
The whole screen tested about 410,000 compounds, of which about 18,000 (4.4%) were called active. Inconclusive results (about 7%) are left out. The sample as a whole holds a higher share of actives than the screen did.
value kind: activity change, negative = inhibition (%)

[[record]]
molecule = "CCCCc1nn2c(=O)cc(COC(=O)c3cccc(NC(=O)COc4ccccc4)c3)nc2s1"
value_kind = "activity change, negative = inhibition"
value_measured = 31.4

[[record]]
molecule = "COc1ccc(OC)c(-c2nc(C(N)=O)c3c(n2)n(-c2ccc4c(c2)OCO4)c(=O)n3C)c1"
value_kind = "activity change, negative = inhibition"
value_measured = 3.83

[[record]]
molecule = "O=C(CSc1nc2ccccc2nc1Cc1ccccc1)N1CCCCC1"
value_kind = "activity change, negative = inhibition"
value_measured = -18.6

[[record]]
molecule = "CC(C)CN(CC(C)C)C(=O)CN1c2cccc3cccc(c23)S1(=O)=O"
value_kind = "activity change, negative = inhibition"
value_measured = 51.7

[[record]]
molecule = "CCCN(CCC)CCNC(=O)c1ccc2c(c1)NC(=O)C(CS(=O)(=O)Cc1cccc(Br)c1)N2 (stereo not given)"
value_kind = "activity change, negative = inhibition"
value_measured = -22.3


// provenance: PubChem BioAssay AID1259415
